Give growth for every item shown.
Test system: MALME-3M melanoma
assayNotes: NCI-60 one-dose screen, 48 h (100 = growth as untreated, 0 = no growth, -100 = all killed)
studyConditions: 10 µM unless noted
Compounds without any hit were thinned out: in the full panel of roughly 83,000, 20% have a hit. The source made the active and inactive calls. Rule for the calls: active = growth percent below 10; inactive = the rest.

Consider the following illustrative entries.
[[record]]
smiles = "COc1ccc(-c2cnc(-c3ccc(Cl)cc3)[nH]2)cc1OC"
readouttype = "growth"
valueobserved = "155% (inactive)"

[[record]]
smiles = "C=CC(=O)N1CCC[C@@H](n2nc(-c3ccc(Oc4ccccc4)cc3)c3c(N)ncnc32)C1"
readouttype = "growth"
valueobserved = "86.8% (inactive)"

[[record]]
smiles = "CCCCCC(=O)OCc1ccc(Cl)c(Cl)c1"
readouttype = "growth"
valueobserved = "90.4% (inactive)"

[[record]]
smiles = "c1cc(OCCN2CCCCC2)cc(-c2n[nH]c3ccc(-c4ncn[nH]4)cc23)c1"
readouttype = "growth"
valueobserved = "13.5% (inactive)"


Given the molecule CNC(=O)c1cccc2cc(Oc3ccnc4cc(OCC5(N)CC5)c(OC)cc34)ccc12 , write its reported growth.
74.3% (inactive)
